Give INHIBITION for every item shown.
Tested on: Plasmodium berghei
experiment.summary: Screen against P. berghei liver stage (PbLuc), transformed with Luciferase, at 2uM
Format: functional, HepG2
reported.conditions: tested at 2 uM
Among all 68,000 compounds or so, about 2,700 (4%) showed an effect of 50% or more. This excerpt belongs to a sample that is enriched for strong results.
Express the result in % but write the number alone.

// lookup INHIBITION for CS(=O)(=O)CCN1CC(c2ccccc2)(c2ccccc2)CCC1=O
19.12

Try this molecule too: Cc1nc(N2CCCC2)nc2c1CCN(C(=O)CC1CC1)CC2
-24.79

Next: CCN(Cc1ccc2c(c1)OCCO2)C(=O)NCc1cc[nH]n1
21.31

Cc1nccc(NCc2cncc3c2CCN(CC2CC2)C3)n1 ?
25.86

Param item: Cc1nccn1C1CCCN(C(=O)c2ccc3c(c2)COC3)C1 (configuration not stated)
23.92

Next record, please: CCC1(c2ccc(NS(=O)(=O)c3cccs3)cc2)CCC(=O)NC1=O (configuration not stated)
-13.33

Now consider COc1ccccc1N1CCN(C(=O)COc2c(C)occc2=O)CC1 and answer again.
-24.81

Next molecule up: O=C1CCC(c2ccccc2)(c2ccccc2)CN1CCO
22

Lookup NC(=O)CSCC(=O)NCC1CCCC1
60.79

Record: Cc1cnc(C)c(N2C[C@H]3OC(=O)N(C4CCCC4)[C@H]3C2)n1
12.59

# repeat for Cc1nccn1C1CCCN(C(=O)c2ccc3nncn3c2)C1 (configuration not stated)
47.87

Another molecule to check: N#CCSCC(=O)NCC1CCCCC1
-64.85
